target: TACE (Homo sapiens, UniProt P78536); experiment: TACE inhibition (fluorescent peptidyl substrate); type: biochemical; conditions: read-out: TACE IC50
Sequence (P78536 215-824): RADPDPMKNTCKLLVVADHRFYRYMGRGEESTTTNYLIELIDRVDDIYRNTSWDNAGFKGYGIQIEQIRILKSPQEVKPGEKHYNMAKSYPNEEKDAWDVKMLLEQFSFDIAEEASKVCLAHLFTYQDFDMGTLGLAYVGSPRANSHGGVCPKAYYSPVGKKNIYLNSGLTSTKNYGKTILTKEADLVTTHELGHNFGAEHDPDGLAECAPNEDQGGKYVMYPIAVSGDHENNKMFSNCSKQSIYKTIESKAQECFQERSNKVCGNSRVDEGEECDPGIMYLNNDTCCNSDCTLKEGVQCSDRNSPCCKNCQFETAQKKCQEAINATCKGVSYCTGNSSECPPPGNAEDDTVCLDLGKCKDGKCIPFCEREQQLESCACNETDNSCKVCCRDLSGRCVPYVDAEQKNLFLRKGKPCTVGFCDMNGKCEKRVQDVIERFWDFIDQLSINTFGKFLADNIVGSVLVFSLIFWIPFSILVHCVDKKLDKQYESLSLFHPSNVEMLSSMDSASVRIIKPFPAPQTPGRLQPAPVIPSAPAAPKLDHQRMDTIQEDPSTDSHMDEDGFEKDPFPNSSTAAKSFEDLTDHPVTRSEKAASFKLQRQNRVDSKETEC
Counter-ions that a name gives are not always drawn.
Kindly supply the reported pIC50 values for the records listed here.
Give bare numbers, as −log10 of the molar value.

// solved cases for pIC50 follow
COc1ccc(S(=O)(=O)N(Cc2ccccc2)c2c(C)cc(C)cc2C(=O)NO)cc1 | 6.62
COc1ccc(S(=O)(=O)N(C)c2c(C)cc(C)cc2C(=O)NO)cc1 | 7.12
COc1ccc(S(=O)(=O)N(C)c2c(CCC(=O)NO)cccc2C(=O)NO)cc1 | 6.43
C=Cc1cc(C)c(N(Cc2ccccc2)S(=O)(=O)c2ccc(OC)cc2)c(C(=O)NO)c1 | 6.87
CCCCCCCCN(C)C(=O)C=Cc1cc(C)c(N(C)S(=O)(=O)c2ccc(OC)cc2)c(C(=O)NO)c1 | 6.43

Give pIC50 for all compounds that follow.
1. CCN(CC)CCOc1ccc(CN(c2c(C)cccc2C(=O)NO)S(=O)(=O)c2ccc(OC)cc2)cc1
2. CCN(Cc1ccncc1)C(=O)C=Cc1cc(C)c(N(C)S(=O)(=O)c2ccc(OC)cc2)c(C(=O)NO)c1
3. COCc1cccc(C(=O)NO)c1N(Cc1cccnc1)S(=O)(=O)c1ccc(OC)cc1
4. COc1ccc(S(=O)(=O)N(Cc2ccccc2)c2c(C)cccc2C(=O)NO)cc1
5. C#Cc1cc(C)c(N(Cc2ccccc2)S(=O)(=O)c2ccc(OC)cc2)c(C(=O)NO)c1
6. CCN(CC)CC#CCN(c1c(C)cccc1C(=O)NO)S(=O)(=O)c1ccc(OC)cc1

1: 6.67; 2: 6.26; 3: 6.86; 4: 6.34; 5: 6.87; 6: 6.66

Give pIC50 for all compounds that follow.
1. COc1ccc(S(=O)(=O)N(Cc2ccccn2)c2c(C)cccc2C(=O)NO)cc1
2. COc1ccc(S(=O)(=O)N(Cc2ccc(CN(C)C)cc2)c2c(C)cccc2C(=O)NO)cc1
3. COc1ccc(S(=O)(=O)N(Cc2cccnc2)c2c(C)cc(-c3cccnc3)cc2C(=O)NO)cc1
4. COc1ccc(S(=O)(=O)N(Cc2ccccc2)c2c(OCCCC(=O)NO)cccc2C(=O)NO)cc1
5. COc1ccc(S(=O)(=O)N(Cc2cccnc2)c2c(C)cc(-c3ccsc3)cc2C(=O)NO)cc1 [Example 398, hydrochloride salt]

[6.45, 6.61, 7.21, 6.17, 7.25]
